Every entry's value here was drawn from ChEMBL document CHEMBL4052777.

# Tested on: SMMC-7721
# assay_overview: Antiproliferative activity against human SMMC7721 cells after 48 hrs by MTT assay
# Format: functional, cell-based
# measurement_setup: SMMC-7721, 48 h
measured_quantity: IC50 (µM)

a: Cc1ccc(-c2cc(C(F)(F)F)nn2-c2ccc(S(N)(=O)=O)cc2)cc1
b: O=c1ccc2ccc(O)cc2o1
In: Lowest IC50? choose a or b Record your answer as the label of the chosen record.
Out: a
